Biological target: human PDE5 (Homo sapiens, UniProt O76074)
Experiment: Inhibition of the type 5 phosphodiesterase (PDE5) activity, modified SPA test with platelet lysate
Conditions: PDE5 from human platelet lysate, 0.5 μM cGMP
Experimental: Method for Measuring Inhibition of the Type 5 Phosphodiesterase (PDE5) Activity: As a source for human PDE5, platelets are used. For that purpose, 150 ml fresh blood from human donors anticoagulated with citrate [final concentration 0.3% (w/v)] is centrifuged at 200 g for 10 min to obtain the so-called platelet-rich-plasma (PRP) as a supernatant. 1/10 volume of ACD solution (85 mM Na3-citrate, 111 mM D-glucose, 71 mM citric acid, pH 4.4) is added to 9/10 volume of PRP. […]
METRIC_NAME: pIC50
Expect pIC50 as a plain number equal to -log10 of the molar concentration.

Which pIC50 is reported with human PDE5 (Homo sapiens, UniProt O76074) for this entry: `COc1ccc(-c2ncnc3c(C(=O)N[C@H]4CC[C@H](NC(=O)C5(O)CC5)CC4)c[nH]c23)c(OCC2CC2)c1` ? 9.39

Which pIC50 is reported with human PDE5 (Homo sapiens, UniProt O76074) for this entry: CCOC(=O)N1CCOC(CNC(=O)c2c[nH]c3c(-c4c(OCC5CC5)ccc5c4OCO5)ncnc23)C1 (stereo not shown) ? 9.40

Which pIC50 is reported with human PDE5 (Homo sapiens, UniProt O76074) for this entry: `CCC(=O)N1CC[C@@H](NC(=O)c2c[nH]c3c(-c4cc(F)c(OC)cc4OCC4CC4)ncnc23)C1` ? 9.30

Which pIC50 is reported with human PDE5 (Homo sapiens, UniProt O76074) for this entry: `CCOC(=O)N[C@H]1CC[C@H](NC(=O)c2c[nH]c3c(-c4ccc(F)cc4OCC4CC4)ncnc23)CC1` ? 8.85

Which pIC50 is reported with human PDE5 (Homo sapiens, UniProt O76074) for this entry: `COCCOc1cc(OC)ccc1-c1ncnc2c(C(=O)N[C@H]3CC[C@@H](NC(=O)C4(O)CC4)CC3)c[nH]c12` ? 8.20

Which pIC50 is reported with human PDE5 (Homo sapiens, UniProt O76074) for this entry: `COCCNC(=O)[C@H]1CC[C@H](NC(=O)c2c[nH]c3c(-c4c(OCC5CC5)ccc5c4OCO5)ncnc23)CC1` ? 9.24

Which pIC50 is reported with human PDE5 (Homo sapiens, UniProt O76074) for this entry: `C[C@H](O)C(=O)N[C@H]1CC[C@@H](NC(=O)c2c[nH]c3c(-c4c(OCC5CC5)ccc5c4OCO5)ncnc23)CC1` ? 9.61

Where do the numbers come from? From patent US8445501B2.
